Source: ChEMBL document CHEMBL4765355

- Test system: Severe acute respiratory syndrome-related coronavirus
- protocolSummary: Binding affinity to SARS-CoV nsp14 assessed as melting temperature at 1 mM at pH 7.5 by differential scanning fluorimetry
Measured Tm by item

molecule: Nc1ncnc2c1ncn2[C@@H]1OC(CN(CCO[C@@H]2[C@H](O)C(CO)O[C@H]2n2cnc3c(N)ncnc32)S(=O)(=O)c2ccc(Cl)c([N+](=O)[O-])c2)[C@@H](O)[C@H]1O (single isomer, unassigned)
Tm: > 40 °C

# input for lookup
input: Requested field: Tm. Item: COc1cc([N+](=O)[O-])ccc1S(=O)(=O)N(CCO[C@@H]1[C@H](O)C(CO)O[C@H]1n1cnc2c(N)ncnc21)CC1O[C@@H](n2cnc3c(N)ncnc32)[C@H](O)[C@@H]1O (single isomer, unassigned)
output: > 40 °C
